The values you see were collected from PubChem BioAssay AID1259407.

System: CCRIS mutagenicity, Ames/micronucleus/aberration tests
Test: CCRIS mutagenicity studies
Conditions: Test System: AMES SALMONELLA TYPHIMURIUM; Strain/Indicator: TA98; Metabolic Activation: NONE; Method: STANDARD PLATE
Active and inactive are the calls of the source. The rule behind the calls is not given here.
Field 'call' accepts active, inactive

Task: # lookup: test call for O=CC1C=COC=C1
Output: inactive

Task: # lookup: test call for O=C(O)c1occ(-c2ccccc2)c1-c1ccccc1
Output: inactive

New cases:
Task: # lookup: test call for CC1=C(C(=O)Nc2ccccc2)SCCO1
Output: inactive

Task: # lookup: test call for O=C(Nc1ccc(Br)cc1)c1csc([N+](=O)[O-])c1
Output: active
